molecular target: EGFR on the surface of human tumour cells (A431, H292) (human, UniProt P00533 25-1210); test: cell-based or functional assay
Readout Kind: IC50, EGF-stimulated EGFR phosphorylation, H292 cells, ELISA (nM)

| Binder | Numeric Value |
| --- | --- |
| I1-GS10-E1 pegylated, His-tagged (designed binder, 40 kDa branched PEG on the Cys of the C-terminal Cys tail) MGVSDVPRDLEVVAATPTSLLISWSARLKVARYYRITYGETGGNSPVQEFTVPKNVYTATISGLKPGVDYTITVYAVTRFRDYQPISINYRTEIDKGSGSGSGSGSGSGSGSGSGSVSDVPRDLEVVAATPTSLLISWVAGAEDYQYYRITYGETGGNSPVQEFTVPHDLVTATISGLKPGVDYTITVYAVTDMMHVEYTEHPISINYRTEIDKPCQHHHHHH | 127 |
| I1-GS10-E3, non-pegylated (designed binder) VSDVPRDLEVVAATPTSLLISWSARLKVARYYRITYGETGGNSPVQEFTVPKNVYTATISGLKPGVDYTITVYAVTRFRDYQPISINYRTEIDKGSGSGSGSGSGSGSGSGSGSVSDVPRDLEVVAATPTSLLISWLPGKLRYQYYRITYGETGGNSPVQEFTVPHDLRTATISGLKPGVDYTITVYAVTNMMHVEYSEYPISINYRTEIDKPSQ | 25 |
| I1GS10-E3 (Pegylated) (designed binder, Cys of the C-terminal Cys tail conjugated to 40 kDa branched PEG) I/E tandem 10Fn3 chain: MGVSDVPRDLEVVAATPTSLLISWSARLKVARYYRITYGETGGNSPVQEFTVPKNVYTATISGLKPGVDYTITVYAVTRFRDYQPISINYRTEIDKGSGSGSGSGSGSGSGSGSGSVSDVPRDLEVVAATPTSLLISWLPGKLRYQYYRITYGETGGNSPVQEFTVPHDLRTATISGLKPGVDYTITVYAVTNMMHVEYSEYPISINYRTEIDKPCQHHHHHH | 46 |

A. E1 EGFR 10Fn3-based binder, His-tagged monomer (designed binder) MGVSDVPRDLEVVAATPTSLLISWVAGAEDYQYYRITYGETGGNSPVQEFTVPHDLVTATISGLKPGVDYTITVYAVTDMMHVEYTEHPISINYRTEIDKPSQHHHHHH
B. E3 EGFR 10Fn3-based binder, His-tagged monomer (designed binder) MGVSDVPRDLEVVAATPTSLLISWLPGKLRYQYYRITYGETGGNSPVQEFTVPHDLRTATISGLKPGVDYTITVYAVTNMMHVEYSEYPISINYRTEIDKPSQHHHHHH
Challenge: Pick the one with the larger IC50, EGF-stimulated EGFR phosphorylation, H292 cells, ELISA: A vs B Kindly give the label for the entry you pick.
Response given: B
